Would you kindly list melting point for each of these molecules?

molecule | melting point
C[C@@]1(O)[C@H](O)[C@@H](CO)O[C@H]1c1coc2c(=O)[nH]c(N)nc12 | 80 to 84 °C
OC[C@H]1O[C@@H](c2coc3c(N4CCC4)ncnc23)[C@H](O)[C@@H]1O | 192 °C
COC(=O)C(NP(=O)(OC[C@H]1O[C@@H](c2coc3c(N)ncnc23)[C@](C)(O)[C@@H]1O)Oc1ccccc1)C(C)C (stereo in doubt) | 58 to 62 °C
C[C@@]1(O)[C@H](O)[C@@H](CO)O[C@H]1c1coc2c(N(N)CCO)ncnc12 | 84 to 92 °C
OC[C@H]1O[C@@H](c2coc3c(N4CCCC4)ncnc23)[C@H](O)[C@@H]1O | 198 °C

Value sought for every listed molecule: melting point.
1. OC[C@H]1O[C@@H](c2coc3c(NC4CC4)ncnc23)[C@H](O)[C@@H]1O
2. CN(C)c1ncnc2c([C@@H]3O[C@H](CO)[C@@H](O)[C@H]3O)coc12
3. CCCNc1ncnc2c([C@@H]3O[C@H](CO)[C@@H](O)[C@H]3O)coc12
4. CNc1ncnc2c([C@@H]3O[C@H](CO)[C@@H](O)[C@H]3O)coc12
5. CC(C)Nc1ncnc2c([C@@H]3O[C@H](CO)[C@@H](O)[C@H]3O)coc12
6. CCNc1ncnc2c([C@@H]3O[C@H](CO)[C@@H](O)[C@H]3O)coc12
7. CN(N)c1ncnc2c([C@@H]3O[C@H](CO)[C@@H](O)[C@@]3(C)O)coc12

A:
1: 88 to 100 °C; 2: 210 °C; 3: 58 to 80 °C; 4: 88 to 100 °C; 5: 58 to 80 °C; 6: 76 to 88 °C; 7: 70 to 84 °C
